Recorded values, source ChEMBL document CHEMBL3227938.

- System: Streptococcus mutans
- assay-method-text: Antimicrobial activity against Streptococcus mutans 6715 after 48 hrs by spectrophotometry
- Format: functional
property-name: log(1/MIC)

> print(dat)
                                   molecule  assay.result
1  CCCCCSc1ccc(NC(=N)NC(=N)NCCCCCCNC(=N)NC(=N)Nc2ccc(SCCCCC)cc2)cc1           5.3
2  CCCSc1ccc(NC(=N)NC(=N)NCCCCCCNC(=N)NC(=N)Nc2ccc(SCCC)cc2)cc1          5.22
3       CCCCCCCCCCNC(=N)NC(=N)Nc1ccc(Cl)cc1             5
4           CCCCCCOC(=N)NC(=N)Nc1ccc(Cl)cc1             5
5         CCCCCCCCNC(=N)NC(=N)Nc1ccc(Cl)cc1          5.22

(P) CNC(=N)NC(=N)Nc1ccc(Cl)cc1
(Q) CCCCCC/N=C(N)/N=C(\N)Nc1ccc(Cl)cc1
Identify the entry with the smaller log(1/MIC): P or Q . I would appreciate it if you answered with the label of your choice.
P
(P: 3, Q: 5)

(I) CCCNC(=N)NC(=N)Nc1ccc(Cl)cc1
(II) CCCCCCCCNC(=N)NC(=N)Nc1ccc(OC)cc1
Field: entry with larger log(1/MIC) (options I / II ). I would appreciate it if you answered with the label of your choice.
II
(II: 5, I: 3)

(P) CCCCC(CC)CNC(=N)NC(=N)Nc1ccc(C)cc1 (configuration not stated)
(Q) CCNC(=N)NC(=N)Nc1ccc(Cl)cc1
Identify the entry with the smaller log(1/MIC): P or Q . I would appreciate it if you answered with the label of your choice.
Q
